Just for reference, patent US20160106654A1 is where these values come from.

Test system: cyclobutane pyrimidine dimer (CPD) and 8-oxo-7,8-dihydro-2′-deoxyguanosine (8OHdG) formation, and protein carbonylation
Assay: Combined protection score (CPD, 8OHdG, protein carbonylation), normalized for concentration
attribute measured: 8oxo Score
Form rule: numeric answer, no unit written next to it.

Reference set (3 entries):
| compound | result value |
| --- | --- |
| O=C1O[C@H]([C@@H](O)CO)C(O)=C1O | 20 |
| Oc1ccc(C=Cc2cc(O)cc(O)c2)cc1 | 18 |
| NCCC(=O)N[C@@H](Cc1cnc[nH]1)C(=O)O | 17 |

Moving on to another compound below.
For the compound COc1cc(/C=C/C(=O)O)ccc1O , what 8oxo Score is on record?
19
